# tested.system: T1, hIL-4R on cells (STAT6-transfected HEK293, TF1, TF1/A12) (human, UniProt P24394 26-825)
# T1 sequence (looked up): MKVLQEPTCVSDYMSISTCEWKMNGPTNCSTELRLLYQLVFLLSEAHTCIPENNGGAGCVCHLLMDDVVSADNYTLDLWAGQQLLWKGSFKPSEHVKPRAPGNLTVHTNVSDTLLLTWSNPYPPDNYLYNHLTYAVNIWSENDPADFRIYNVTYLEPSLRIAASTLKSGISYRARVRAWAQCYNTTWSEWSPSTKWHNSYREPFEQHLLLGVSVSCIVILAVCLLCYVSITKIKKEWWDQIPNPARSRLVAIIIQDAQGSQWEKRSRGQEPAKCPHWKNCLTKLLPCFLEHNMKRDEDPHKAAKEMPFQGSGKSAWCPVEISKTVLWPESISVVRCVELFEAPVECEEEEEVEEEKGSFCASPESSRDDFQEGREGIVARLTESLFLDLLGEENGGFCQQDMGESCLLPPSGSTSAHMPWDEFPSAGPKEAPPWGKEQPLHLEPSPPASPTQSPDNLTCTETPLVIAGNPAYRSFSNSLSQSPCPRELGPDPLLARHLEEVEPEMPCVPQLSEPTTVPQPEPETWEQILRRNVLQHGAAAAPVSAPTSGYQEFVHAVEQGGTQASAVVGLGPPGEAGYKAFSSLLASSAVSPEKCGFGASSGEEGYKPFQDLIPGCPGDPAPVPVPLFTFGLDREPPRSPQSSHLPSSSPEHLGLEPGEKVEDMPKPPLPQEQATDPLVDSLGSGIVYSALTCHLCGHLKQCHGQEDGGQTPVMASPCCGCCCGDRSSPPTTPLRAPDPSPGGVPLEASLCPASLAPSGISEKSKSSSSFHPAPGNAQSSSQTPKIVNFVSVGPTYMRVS
# assay.info: cell-based or functional assay
measured.attribute: TF1 Bioassay IC50 (proliferation, 50 pM hIL-4)
State the value with its unit after it.

1. VAK10G12-5 (antibody, V domains shown, Apparently tested with mouse constant region (anti-mouse IgG capture/detection)) VH: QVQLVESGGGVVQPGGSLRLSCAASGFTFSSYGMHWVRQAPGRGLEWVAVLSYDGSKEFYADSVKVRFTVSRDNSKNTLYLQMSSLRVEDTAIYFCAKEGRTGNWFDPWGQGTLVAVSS VL: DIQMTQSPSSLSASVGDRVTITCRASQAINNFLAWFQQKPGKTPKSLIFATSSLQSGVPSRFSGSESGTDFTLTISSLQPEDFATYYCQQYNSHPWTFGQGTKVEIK : 0.58 nM
2. VAB 15C8-17 (antibody, V domains shown, Apparently tested with mouse constant region (anti-mouse IgG capture/detection)) VH: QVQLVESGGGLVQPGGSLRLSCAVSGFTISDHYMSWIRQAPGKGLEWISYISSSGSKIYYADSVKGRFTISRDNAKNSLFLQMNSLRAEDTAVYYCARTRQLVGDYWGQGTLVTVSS VL: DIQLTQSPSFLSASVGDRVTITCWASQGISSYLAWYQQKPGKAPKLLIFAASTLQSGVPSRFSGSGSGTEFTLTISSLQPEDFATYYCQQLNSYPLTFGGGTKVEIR : 0.44 nM
3. VAK5H4-4 (antibody, V domains shown, Apparently tested with mouse constant region (anti-mouse IgG capture/detection)) VH: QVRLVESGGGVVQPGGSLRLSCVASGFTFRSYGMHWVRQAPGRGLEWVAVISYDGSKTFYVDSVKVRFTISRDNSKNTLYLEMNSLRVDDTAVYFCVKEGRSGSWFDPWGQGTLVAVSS VL: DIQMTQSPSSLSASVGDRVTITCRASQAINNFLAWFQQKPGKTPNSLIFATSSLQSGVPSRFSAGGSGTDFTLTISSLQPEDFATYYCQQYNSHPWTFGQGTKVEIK : 0.15 nM
4. VAK10G6-7 (antibody, V domains shown, Apparently tested with mouse constant region (anti-mouse IgG capture/detection)) VH: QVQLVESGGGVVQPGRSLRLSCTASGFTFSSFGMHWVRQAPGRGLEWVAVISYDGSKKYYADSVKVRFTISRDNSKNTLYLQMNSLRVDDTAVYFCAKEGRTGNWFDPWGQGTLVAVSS VL: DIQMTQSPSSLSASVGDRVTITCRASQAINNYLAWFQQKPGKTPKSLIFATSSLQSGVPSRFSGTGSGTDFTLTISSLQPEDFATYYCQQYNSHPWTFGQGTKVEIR : 0.23 nM

Ask: Specify reported TF1 Bioassay IC50 (proliferation, 50 pM hIL-4) for the binder shown: VAK7G8-5 (antibody, V domains shown, Apparently tested with mouse constant region (anti-mouse IgG capture/detection)) VH: QVRLVESGGGVVQPGGSLRLSCTASGFIFRSYGMHWVRQAPGRGLEWVAVISYDGSKTFYVDSVKVRFTISRDNSKNTLYLEMNSLRVDDTAVYFCVKEGRSGSWFDPWGQGTLVAVSS VL: DIHMTQSPSSLSASVGDRVTITCRASQAINNFLAWFQQKPGKTPKSLIFATSSLQSGVPSRFSGSGSGTDFTLTISSLQPEDFATYYCQQYNSHPWTFGQGTKVEIR
Result: 0.13 nM
